# Assay system: UniProt:A0A0S2DCE3
# Sequence (A0A0S2DCE3 1-160): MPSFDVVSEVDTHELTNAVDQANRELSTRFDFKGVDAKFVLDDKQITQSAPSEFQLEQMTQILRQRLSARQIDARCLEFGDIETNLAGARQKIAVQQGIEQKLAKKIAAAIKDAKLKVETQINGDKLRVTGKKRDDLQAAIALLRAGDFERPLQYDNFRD
# Protocol description: microscale thermophoresis

| Molecule | Assay system | Kd / µM |
| --- | --- | --- |
| Nc1nc2c(ncn2[C@@H]2O[C@@H]3CO[P@](=O)(O)O[C@H]4[C@@H](O)[C@H](n5cnc6c(=O)[nH]c(N)nc65)O[C@@H]4CO[P@](=O)(O)O[C@H]3[C@H]2O)c(=O)[nH]1 [c-di-GMP] | UniProt:A0A0S2DCE3 | 14.6 |
